- experiment notes: qHTS assay to identify small molecule antagonists of the sonic hedgehog signaling (Shh) pathway (AID 1259369); also: nearly all actives have a fitted effect of over 45% in size
- condition context: NIH/3T3 Gli1-Luc reporter, Shh antagonist, luminescence 24 h; series mostly up to 92.4 µM
Results filed as inconclusive are left out. The source made the active and inactive calls. Calls follow the shape of the full dose curve.
Labels: true (active), false (inactive)

molecule=CC(C)(O)CCC(C)(C)O assigned_label=false
molecule=CCCC(=O)c1ccccc1 assigned_label=false
molecule=CCC[C@H](N[C@@H](C)C(=O)N1[C@H](C(=O)O)C[C@@H]2CCCC[C@@H]21)C(=O)OCC assigned_label=false
molecule="CCOC(=O)C(C)C(C)=O (stereo not given)" assigned_label=false
molecule=CC(C)CCOC(=O)c1ccc(N(C)C)cc1 assigned_label=false
molecule="CCN1CCCC1CNC(=O)c1cc(S(=O)(=O)CC)c(N)cc1OC (stereo not given)" assigned_label=false
molecule=C[N+]1([O-])CCOCC1 assigned_label=false
molecule=c1ccc2cc3c(ccc4ccccc43)cc2c1 assigned_label=false
molecule=O=C1NCC2(CCN(CCc3ccccc3)CC2)O1 assigned_label=false
molecule=CC(=O)O[C@]1(C(C)=O)CC[C@H]2[C@@H]3C[C@H](C)C4=CC(=O)CC[C@]4(C)[C@H]3CC[C@@]21C assigned_label=true
molecule=Cc1cccc2n[nH]nc12 assigned_label=false
molecule=NC(=Nc1ccccc1)Nc1ccccc1 assigned_label=true
molecule=NC(N)=Nc1nc(CSCC/C(N)=N/S(N)(=O)=O)cs1 assigned_label=false
molecule=CC[C@]1(O)C[C@@H]2CN(CCc3c([nH]c4ccccc34)[C@@](C(=O)OC)(c3cc4c(cc3OC)N(C)[C@H]3[C@@](O)(C(=O)OC)[C@H](OC(C)=O)[C@]5(CC)C=CCN6CC[C@]43[C@@H]65)C2)C1 assigned_label=true
molecule="CCCCC/C=C/CC1CC(=O)OC1=O (stereo not given)" assigned_label=false
molecule=O=C(O)c1cn(-c2ccc(F)cc2)c2cc(N3CCNCC3)c(F)cc2c1=O assigned_label=false
molecule=CC(=O)N[C@@H](CS)C(=O)O assigned_label=false
molecule=CC(C)(c1ccccc1)c1ccc(Nc2ccc(C(C)(C)c3ccccc3)cc2)cc1 assigned_label=false
molecule=CCc1ccc(C(c2ccc(CC)cc2)C(Cl)Cl)cc1 assigned_label=false
molecule=CC(=O)CC(=O)Nc1ccc2[nH]c(=O)[nH]c2c1 assigned_label=false
molecule=Nc1cc(S(=O)(=O)O)cc2cc(S(=O)(=O)O)cc(O)c12 assigned_label=false
molecule=CCCOC(=O)c1cc(O)c(O)c(O)c1 assigned_label=true
molecule=Cc1cc(C2(c3cc(C)c(O)cc3C)OS(=O)(=O)c3ccccc32)c(C)cc1O assigned_label=false
molecule=CC(C)CCOCc1ccccc1 assigned_label=false
molecule=CCCCOCCOC(=O)c1ccccc1C(=O)OCCOCCCC assigned_label=true
molecule=c1ccc2n[nH]nc2c1 assigned_label=false
molecule="CCn1cc(C(=O)O)c(=O)c2cc(F)c(N3CCNC(C)C3)c(F)c21 (stereo not given)" assigned_label=false
molecule="CCCNC(C)C(=O)Nc1ccccc1C (stereo not given)" assigned_label=false
molecule=CC(=O)OCC1=C(C(=O)O)N2C(=O)[C@@H](NC(=O)Cc3cccs3)[C@H]2SC1 assigned_label=false
molecule=CCC(CO)(CO)COCC(CC)(CO)CO assigned_label=false
molecule=Cc1occc(=O)c1OC(=O)C(C)C assigned_label=false
molecule=CN1C(=O)c2ccc([N+](=O)[O-])cc2C1=O assigned_label=false
molecule=CO[Si](OC)(OC)c1ccccc1 assigned_label=false
molecule=O=C(O)CP(=O)(O)O assigned_label=false
molecule=O=Cc1ccc(Cl)cc1 assigned_label=false
molecule="CCCCC(CC)COC(=O)CC(C(=O)OCC(CC)CCCC)S(=O)(=O)O (stereo not given)" assigned_label=false
molecule="c1cc(C(c2ccc(OCC3CO3)cc2)C(c2ccc(OCC3CO3)cc2)c2ccc(OCC3CO3)cc2)ccc1OCC1CO1 (stereo not given)" assigned_label=false
molecule=COc1ccc(COC(C)=O)cc1 assigned_label=false
molecule=COC(c1ccccc1)(c1ccccc1)[C@H](Oc1nc(C)cc(C)n1)C(=O)O assigned_label=false
molecule=C1COC(NC(C2CC2)C2CC2)=N1 assigned_label=false
molecule=NC(N)=NC(=O)Cc1c(Cl)cccc1Cl assigned_label=false
molecule=Nc1nc2ccccc2[nH]1 assigned_label=false
molecule=O=C1Nc2ccccc2C1(c1ccc(O)cc1)c1ccc(O)cc1 assigned_label=true
molecule=CC(C)(C)c1cc(C(C)(C)C)c(O)c(C(C)(C)C)c1 assigned_label=false
molecule="CNCCC(Oc1ccc(C(F)(F)F)cc1)c1ccccc1 (stereo not given)" assigned_label=true
molecule=CC(=O)OCCOCCOCCOC(C)=O assigned_label=false
molecule=Nc1ccc2cc3ccccc3cc2c1 assigned_label=false
molecule="CC1COc2c(N3CCN(C)CC3)c(F)cc3c(=O)c(C(=O)O)cn1c23 (stereo not given)" assigned_label=false
molecule="BrC1CCC(Br)C(Br)CCC(Br)C(Br)CCC1Br (stereo not given)" assigned_label=true
molecule=CCCN[C@H]1CCc2nc(N)sc2C1 assigned_label=false
